Each recorded value in this set is attributed to the supplement of paper PMC8728848.

# targetOfAssay: Man(a1-2)Man(a1-3)[Man(a1-2)Man(a1-6)]Man
# methodDescription: glycan array binding signal (z-score within array); higher = stronger binding
# recordedConditions: glycan notation: IUPAC condensed, linker removed
The full list was thinned out, with the strongest signals kept by preference.
measuredAttribute: glycan array binding signal (z-score)

Task: // glycan array binding signal (z-score) lookup, key: SrpA (Streptococcus sanguis) (protein) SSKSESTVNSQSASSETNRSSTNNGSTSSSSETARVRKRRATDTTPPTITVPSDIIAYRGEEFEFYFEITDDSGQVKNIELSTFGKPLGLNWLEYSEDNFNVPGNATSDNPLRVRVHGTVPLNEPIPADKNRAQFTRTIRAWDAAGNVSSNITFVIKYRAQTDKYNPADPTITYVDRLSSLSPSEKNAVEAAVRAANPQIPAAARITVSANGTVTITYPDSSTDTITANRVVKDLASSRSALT
Result: -0.848
